Data origin, for the record: patent US5672707A

Listing of recorded LD50 (mg/kg) by Kerber by entry.
- ASSAY TEXT: in vivo
- ASSAY SETUP: intraperitoneal injection; Table 5
Quick note: give the figure in mg/kg, leave out the unit.

Field: example entries. Status: answers known.
[[record]]
compound = "CCCCNc1c2c(nc3ccccc13)CC(C)(C)CC2=O [Vv]"
reported_endpoint = "LD50 (mg/kg) by Kerber"
endpoint_value = 433.3

[[record]]
compound = "CC1(C)C=Cc2c(nc3ccccc3c2NCc2ccccc2)C1 [VIIi]"
reported_endpoint = "LD50 (mg/kg) by Kerber"
endpoint_value = 500

[[record]]
compound = "Cc1ccc(CNc2c3c(nc4ccccc24)CC(C)(C)CC3O)c(C)c1 (stereo not drawn) [VIj]"
reported_endpoint = "LD50 (mg/kg) by Kerber"
endpoint_value = 33.4

[[record]]
compound = "CC1(C)C=Cc2c(nc3ccccc3c2NCc2ccccc2)C1 [VIIo]"
reported_endpoint = "LD50 (mg/kg) by Kerber"
endpoint_value = 62.5

[[record]]
compound = "CC1(C)C=Cc2c(nc3ccccc3c2NCc2ccccc2)C1 [VIIq]"
reported_endpoint = "LD50 (mg/kg) by Kerber"
endpoint_value = 73.3


LD50 (mg/kg) by Kerber lookup needed for CCCCNc1c2c(nc3ccccc13)CC(C)(C)CC2=O [Vp] , thanks.
200.0

====

- ASSAY TEXT: in vivo
- ASSAY SETUP: in vivo, ip, intraperitoneal injection; Table 5; read-out: LD50 (mg/kg) by Kerber
Response field label takes met when LD50 is strictly below 60 mg/kg and not met in all other cases.

[[record]]
compound = "Cc1ccc2nc3c(c(N)c2c1)C(=O)CC(C)(C)C3"
group_label = "not met"


# strict comparison: is reported LD50 < 60 mg/kg? input = CC1(C)CC(=O)c2c(nc3ccccc3c2NCc2ccc(Cl)cc2)C1
not met

// query: CC1(C)CC(=O)c2c(nc3ccc(Br)cc3c2N)C1
not met

====

- ASSAY TEXT: in vivo
- ASSAY SETUP: in vivo, ip; read-out: LD
Listing of recorded LD50 by entry.
Quick note: give the figure in mg/kg, leave out the unit.

[[record]]
compound = "Nc1c2c(nc3c1CCC3)CCCC2 [Amiridine, amiridine, reference compound]"
readout_units = "mg/kg"
endpoint_value = 35


Kindly review the next compound as well.
LD50 lookup needed for Nc1c2c(nc3ccccc13)CCCC2 [Tacrine, tacrine, reference compound] , thanks.
52

====

- ASSAY TEXT: in vivo
- ASSAY SETUP: in vivo, ip, LD50 (mg/kg) by Kerber
REPORTED ENDPOINT: LD50 (mg/kg)
Quick note: give the figure in mg/kg, leave out the unit.

LD50 lookup needed for CC1(C)C=Cc2c(nc3ccccc3c2NCc2ccccc2)C1 , thanks.
75

====

- System: rat adipocytes
- ASSAY TEXT: Lipid content in incubation medium after incubation of adipocytes
- Format: cell-based
- ASSAY SETUP: incubation medium; Table 12
Listing of recorded FFA/TG in incubation medium by entry.
Form field (numeric): enter value without unit.

Field: example entries. Status: answers known.
[[record]]
compound = "CCCCNc1c2c(nc3ccccc13)CC(C)(C)CC2=O [Vp]"
experimental_target = "rat adipocytes"
endpoint_value = 0.92

[[record]]
compound = "CC1(C)C=Cc2c(nc3ccccc3c2NCc2ccccc2)C1 [VIIj]"
experimental_target = "rat adipocytes"
endpoint_value = 1.07

[[record]]
compound = "CC1(C)C=Cc2c(nc3ccccc3c2NCc2ccccc2)C1 [VIIl]"
experimental_target = "rat adipocytes"
endpoint_value = 1.00

[[record]]
compound = "CC1(C)C=Cc2c(nc3ccccc3c2NCc2ccccc2)C1 [VIIk]"
experimental_target = "rat adipocytes"
endpoint_value = 1.10

[[record]]
compound = "Cc1ccc(CNc2c3c(nc4ccccc24)CC(C)(C)CC3O)c(C)c1 (stereo not shown)"
experimental_target = "rat adipocytes"
endpoint_value = 1.03


FFA/TG in incubation medium lookup needed for CC1(C)C=Cc2c(nc3ccccc3c2NCc2ccc(Cl)cc2)C1 , thanks.
0.96

// query: CCCCNc1c2c(nc3ccccc13)CC(C)(C)CC2=O [Vaa]
0.92

====

Listing of recorded FFA/TG in adipocytes by entry.
- Test system: rat adipocytes
- ASSAY TEXT: Lipid composition of adipocytes after incubation with compounds
- Type: cell-based
- ASSAY SETUP: cells; Table 11
Form field (numeric): enter value without unit.

[[record]]
compound = "CC1(C)C=Cc2c(nc3ccccc3c2NCc2ccccc2)C1 [VIIl]"
endpoint_value = 1.00

[[record]]
compound = "CC1(C)C=Cc2c(nc3ccccc3c2NCc2ccccc2)C1 [VIIk]"
endpoint_value = 0.93

[[record]]
compound = "Cc1ccc(CNc2c3c(nc4ccccc24)CC(C)(C)CC3O)c(C)c1 (centres unmarked) [VIj]"
endpoint_value = 1.08

[[record]]
compound = "CC(C)(Sc1cc(C(C)(C)C)c(O)c(C(C)(C)C)c1)Sc1cc(C(C)(C)C)c(O)c(C(C)(C)C)c1 [probucol, reference compound]"
endpoint_value = 1.10

[[record]]
compound = "CCCCNc1c2c(nc3ccccc13)CC(C)(C)CC2=O [Vaa]"
endpoint_value = 0.94


FFA/TG in adipocytes lookup needed for CC1(C)C=Cc2c(nc3ccccc3c2NCc2ccc(Cl)cc2)C1 [VIId] , thanks.
1.16

// query: CCCCNc1c2c(nc3ccccc13)CC(C)(C)CC2=O [Vp]
1.03

// query: CC1(C)C=Cc2c(nc3ccccc3c2NCc2ccccc2)C1 [VIIj]
1.00

====

- Test system: rat adipocytes
- ASSAY TEXT: Lipid composition of adipocytes after incubation with compounds
- Assay type: cell-based
- ASSAY SETUP: distribution between cells and incubation medium; Table 13
Listing of recorded PLc/PLm by entry.

Field: example entries. Status: answers known.
[[record]]
compound = "CC1(C)C=Cc2c(nc3ccccc3c2NCc2ccccc2)C1 [VIIl]"
reported_endpoint = "PLc/PLm"
endpoint_value = 0.97

[[record]]
compound = "CCCCNc1c2c(nc3ccccc13)CC(C)(C)CC2=O [Vaa]"
reported_endpoint = "PLc/PLm"
endpoint_value = 1.04

[[record]]
compound = "CC1(C)C=Cc2c(nc3ccccc3c2NCc2ccccc2)C1 [VIIk]"
reported_endpoint = "PLc/PLm"
endpoint_value = 0.78

[[record]]
compound = "CC1(C)C=Cc2c(nc3ccccc3c2NCc2ccc(Cl)cc2)C1 [VIId]"
reported_endpoint = "PLc/PLm"
endpoint_value = 0.97

[[record]]
compound = "Cc1ccc(CNc2c3c(nc4ccccc24)CC(C)(C)CC3O)c(C)c1 (stereo not shown) [VIj]"
reported_endpoint = "PLc/PLm"
endpoint_value = 1.24

[[record]]
compound = "CCCCNc1c2c(nc3ccccc13)CC(C)(C)CC2=O [Vp]"
reported_endpoint = "PLc/PLm"
endpoint_value = 1.41


Kindly review the next compound as well.
PLc/PLm lookup needed for CC1(C)C=Cc2c(nc3ccccc3c2NCc2ccccc2)C1 [VIIj] , thanks.
1.08

====

- Test system: old rats
- ASSAY TEXT: Passive avoidance test in old rats
- Assay type: in vivo
- ASSAY SETUP: old rats (18 month), 20 days application, 1 mg/kg (piracetam 250 mg/kg)
Listing of recorded Passive avoidance latency in 7 days after training by entry.
Quick note: give the figure in s, leave out the unit.

Field: example entries. Status: answers known.
[[record]]
compound = "NC(=O)CN1CCCC1=O [Piracetam, piracetam, reference compound]"
readout_units = "s"
endpoint_value = 120.0

[[record]]
compound = "CCCCNc1c2c(nc3ccccc13)CC(C)(C)CC2=O"
readout_units = "s"
endpoint_value = 169.4

[[record]]
compound = "Nc1c2c(nc3c1CCC3)CCCC2 [Amiridine, amiridine, reference compound]"
readout_units = "s"
endpoint_value = 116.1


Kindly review the next compound as well.
Passive avoidance latency in 7 days after training lookup needed for Nc1c2c(nc3ccccc13)CCCC2 [Tacrine, tacrine, reference compound] , thanks.
163.4

====

Listing of recorded IC50 by entry.
- EXPERIMENTAL TARGET: Acetylcholinesterase, enzyme from human erythrocytes (Homo sapiens)
- Construct: on the enzyme from human erythrocytes; from tissue; host or cells: human erythrocytes
- Sequence (P22303-2 with tags, fused parts or gaps limits assumed): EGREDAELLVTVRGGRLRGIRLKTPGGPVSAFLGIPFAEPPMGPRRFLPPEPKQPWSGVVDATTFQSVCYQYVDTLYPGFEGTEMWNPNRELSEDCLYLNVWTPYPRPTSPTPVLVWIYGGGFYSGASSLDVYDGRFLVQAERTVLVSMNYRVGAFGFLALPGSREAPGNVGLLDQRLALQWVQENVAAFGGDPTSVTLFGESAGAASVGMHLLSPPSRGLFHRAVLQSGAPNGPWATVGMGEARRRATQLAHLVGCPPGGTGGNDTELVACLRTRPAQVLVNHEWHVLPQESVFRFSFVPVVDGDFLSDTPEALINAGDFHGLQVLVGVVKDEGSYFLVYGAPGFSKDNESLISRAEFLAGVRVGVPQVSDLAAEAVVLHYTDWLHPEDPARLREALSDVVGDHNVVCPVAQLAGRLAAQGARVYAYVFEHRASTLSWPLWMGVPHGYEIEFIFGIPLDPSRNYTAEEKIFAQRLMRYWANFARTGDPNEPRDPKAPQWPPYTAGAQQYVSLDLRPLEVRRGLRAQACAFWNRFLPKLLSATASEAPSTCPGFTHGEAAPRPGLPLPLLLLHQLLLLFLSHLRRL
- ASSAY TEXT: Acetylcholinesterase inhibition, spectrophotometric technique of Ellman
- Type: biochemical
- ASSAY SETUP: Acetylcholinesterase inhibition IC50 (M), enzyme from human erythrocytes; Table 5
Quick note: give the figure in M, leave out the unit.

[[record]]
compound = "Cc1ccc(CNc2c3c(nc4ccccc24)CC(C)(C)CC3=O)c(C)c1"
experimental_target = "Acetylcholinesterase, enzyme from human erythrocytes (Homo sapiens)"
endpoint_value = "1e-05"

[[record]]
compound = "Cc1ccc(CNc2c3c(nc4ccccc24)CC(C)(C)CC3O)c(C)c1 (stereo not drawn) [VIi]"
experimental_target = "Acetylcholinesterase, enzyme from human erythrocytes (Homo sapiens)"
endpoint_value = "1e-06"

[[record]]
compound = "CC1(C)Cc2nc3ccccc3c(NCc3ccc(Cl)cc3)c2C(O)C1 (stereo not drawn)"
experimental_target = "Acetylcholinesterase, enzyme from human erythrocytes (Homo sapiens)"
endpoint_value = "3e-06"

[[record]]
compound = "CCCCNc1c2c(nc3ccccc13)CC(C)(C)C=C2"
experimental_target = "Acetylcholinesterase, enzyme from human erythrocytes (Homo sapiens)"
endpoint_value = "6e-07"

[[record]]
compound = "CC(C)CNc1c2c(nc3ccccc13)CC(C)(C)CC2=O"
experimental_target = "Acetylcholinesterase, enzyme from human erythrocytes (Homo sapiens)"
endpoint_value = "2e-06"


IC50 lookup needed for Cc1cc(C)c2nc3c(c(N)c2c1)C(=O)CC(C)(C)C3 , thanks.
3e-05

// query: CC1(C)CC(=O)c2c(nc3ccccc3c2NCc2ccc(Cl)cc2)C1
8e-05

// query: CC1(C)Cc2nc3ccccc3c(N)c2C(O)C1 (stereo not drawn)
1.2e-06

// query: CC1(C)Cc2nc3ccccc3c(NCc3ccccc3)c2C(O)C1 (stereo not drawn)
1.3e-06
